- experimental_protocol: folding stability dG unfold from trypsin proteolysis; higher = more stable
Below: a set of entries, each annotated with reported folding stability dG unfold.
Please append the unit to your numeric answer.

{"sequence_entry": "SAGGSAGGSAGGSIPPSDVTTEVDPNTPLTTVTYPSGVVVTETFPPDGTSTTTVDTAAGSAGGSAGGSAGGS [r10_170_JUSTAS]", "folding stability dG unfold": "2.01 kcal/mol"}
{"sequence_entry": "KKYKVPVKEALKVAKKLIEKGYEKVKITAYLPNGEKYEIEDIKEFEEELKKKFPGIKPENLTVEIEVIPKES [r1_325_TrMRF]", "folding stability dG unfold": "3.26 kcal/mol"}
{"sequence_entry": "SMPRLVATPRPDGSVLVLLEAPPERPEEIAEEIRERLGVPLRVVRIEPVPERVGDRPRLRYRVLIEVDVRSA [r9_431_TrMRF]", "folding stability dG unfold": "0.96 kcal/mol"}
{"sequence_entry": "MRIEIRVEKVEDGFYKVTIRLEETGETLELVVPKSLEEAKAAAEELLRELFPDVKVTEIRVERVPLPEEDLS [r1_80_TrROS_Hall]", "folding stability dG unfold": "3.03 kcal/mol"}
{"sequence_entry": "SAGGSAGGSTAKEIADKLGFDNVEIKPTKPVEQRKDPNGKWRRQYVYTIKIRNPDGREWTIPISAGGSAGGS [r12_221_TrROS]", "folding stability dG unfold": "0.626 kcal/mol"}
{"sequence_entry": "SAGGSAGGSAPNYIKIRIKFQSDGKRHSMEIFIPDNPKKAKQIAKEMANMGGIEDVEVERYSAGGSAGGSAG [r3_310_TrROS]", "folding stability dG unfold": "0.515 kcal/mol"}

Now examine the next entry.
Recorded result, SAGGSAGGSAGGEPDKVSIHINITEEFIEQIKNGKPIPPWARPAIKYAQKKGKKVEIVWSAGGSAGGSAGGS [r10_890_TrROS] , folding stability dG unfold: -1.04 kcal/mol
